Source of measurements: patent US9242944B2

Give measured inhibition at 100 µM for each item. Keep answers brief.
# Study System: c-Myc-Max heterodimers (Homo sapiens)
# Construct: c-Myc bHLH-ZIP domain (residues 353-437); His6-TEV protease substrate tag; made in house; host or cells: bacteria (pET151 vector for Myc)
# Sequence (P01106 368-452, one chain of several): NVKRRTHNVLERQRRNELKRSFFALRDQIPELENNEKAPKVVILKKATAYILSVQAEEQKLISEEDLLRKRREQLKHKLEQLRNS
# Experimental Details: Electrophoretic mobility shift assay (EMSA) of c-Myc-Max dimerization and DNA binding
# Test Settings: Table 1; 100 μM compound; Myc-Max/DNA band intensity relative to control; read-out: Inhibition at 100 μM (%)

Some compounds with recorded inhibition at 100 µM:
{"Mol": "Cc1ccccc1Nc1ccc([N+](=O)[O-])c2nonc12", "Study System": "c-Myc-Max heterodimers (Homo sapiens)", "Val": "11%"}
{"Mol": "O=[N+]([O-])c1ccc(Nc2ccccc2Br)c2nonc12", "Study System": "c-Myc-Max heterodimers (Homo sapiens)", "Val": "~40%"}
{"Mol": "COc1ccccc1Nc1ccc([N+](=O)[O-])c2nonc12", "Study System": "c-Myc-Max heterodimers (Homo sapiens)", "Val": "0%"}
{"Mol": "O=C(O)c1cccc(Nc2ccc([N+](=O)[O-])c3nonc23)c1", "Study System": "c-Myc-Max heterodimers (Homo sapiens)", "Val": "0%"}

Asked: I would be grateful if you could share the reported inhibition at 100 µM for O=[N+]([O-])c1ccc(Oc2ccccc2-c2ccccc2)c2nonc12 .
Given back: 36%
